Assay: gradient 5% acetonitrile 3 min, to 50% in 2 min, to 85% in 15 min, held 3 min, 100 µL/min
Details: column: Zorbax Extend-C18 2.1 x 50 mm; eluents: water / acetonitrile, 0.1% formic acid
valueType: RP-LC retention time (s)

Previously resolved entries follow.
COc1ccccc1-c1nc(C2CC(=O)N(c3ccc(Cl)cc3)C2)no1 (stereo not given)	1020
O=C(NCCc1ccccc1)C(=O)NCc1cccnc1	567

(I) CCn1c(=O)c(N2CCN(C(=O)Nc3cc(Cl)c(OC)cc3OC)CC2)nc2cccnc21
(II) O=C(c1cc(-c2ccncc2)n[nH]1)N1CCN(C(=O)C2CCCC2)CC1
### Prompt Response body: label of entry with the larger RP-LC retention time; valid values I , II . Pick one; state its label.
### Response I

###

Test: gradient 5% acetonitrile 3 min, to 50% in 2 min, to 85% in 15 min, held 3 min, 100 µL/min
Conditions: column: Zorbax Extend-C18 2.1 x 50 mm; eluents: water / acetonitrile, 0.1% formic acid
valueType: RP-LC retention time (s)

CCCN(C(=O)C1CCC(C)CC1)c1nc(-c2ccccc2)cs1 (stereo not given)	748
Cc1cccc(N2CCN(CC(O)COc3ccc(Cl)cc3)CC2)c1 (stereo not given)	846
O=C(Cn1c(=O)n(-c2ccc(F)cc2)c2ncccc21)NCCN1CCCCC1	592
COc1ccc(-c2nnc(Cc3nc(-c4ccc(OC)c(F)c4)no3)o2)cc1	1040
CC(=O)N1CCc2ccc(NS(=O)(=O)CCN3C(=O)CCCC3=O)cc21	615

(P) CCOCCCNC(=O)CCC(=O)N1CC2CCCN2c2ccccc21 (stereo not given)
(Q) Cc1nc(C)c(C(=O)N2CC(F)(F)C[C@H]2COc2ccc3c(c2)CCC3)s1
### Prompt Response body: label of entry with the larger RP-LC retention time; valid values P , Q . Pick one; state its label.
### Response Q

###

Assay: gradient 5% acetonitrile 3 min, to 50% in 2 min, to 85% in 15 min, held 3 min, 100 µL/min
Conditions: column: Zorbax Extend-C18 2.1 x 50 mm; eluents: water / acetonitrile, 0.1% formic acid
valueType: RP-LC retention time (s)

CC(C)CCNC(=O)c1cn(C)nc1S(=O)(=O)N1CCC(C)CC1	996
Cc1scc2nc(C(=O)NC3CCCCC3)nc(N(C)C)c12	652
Cc1noc([C@@H]2CN(C(=O)c3ccsc3)C[C@H]2C(N)=O)n1	601
Cn1c(C(O)c2ccccc2)nc2ccccc21 (stereo not given)	545

(a) FC(F)(F)c1cccc(CSc2ccc(-n3ccnc3)nn2)c1
(b) Cc1c(Cl)cccc1NC(=O)C1CCN(c2nc(C3CCC3)nc3csc(C)c23)CC1
### Prompt Response body: label of entry with the larger RP-LC retention time; valid values a , b . Pick one; state its label.
### Response b

###

Assay: gradient 5% acetonitrile 3 min, to 50% in 2 min, to 85% in 15 min, held 3 min, 100 µL/min
Conditions: column: Zorbax Extend-C18 2.1 x 50 mm; eluents: water / acetonitrile, 0.1% formic acid
valueType: RP-LC retention time (s)

Previously resolved entries follow.
C[C@@H]1CN(C(=O)c2ccoc2)C[C@H]1c1nc(-c2ccncc2)no1	678
Cc1nc(Cn2cccc2C(=O)Nc2ccc(C)c(C)c2)no1	910
Cc1nc(N2CCOCC2)c2c(C(=O)NCc3ccc(F)cc3)c(C)oc2n1	702
COc1ccccc1NC(=O)CSCC(=O)N1CCC(C(N)=O)CC1	619
COc1ccc(C(=O)CC2(O)C(=O)Nc3ccc(C)cc32)c(OC)c1 (centres undefined)	685
O=C(C1=CN(c2ccc(Br)cc2)c2cc(Cl)ccc2S1(=O)=O)N1CCOCC1	924
CCOc1ccccc1N1CCN(c2cc(C(=O)O)c3cc(NC(=O)C4CCC4)ccc3n2)CC1	864
Cc1cc2nc(CSc3nnc(-c4cccc(Cl)c4)o3)cc(=O)n2o1	792

(a) COc1cc2c(cc1OC)C(C(=O)NCCCN1CCCC1=O)C1c3ccccc3CCN1C2=O (centres undefined)
(b) COc1ccc(S(=O)(=O)N2CCCC(C(=O)Nc3cccc(C)c3)C2)cc1Cl (centres undefined)
### Prompt Would you kindly point out which of a and b has the smaller RP-LC retention time figure? Pick one; state its label.
### Response a
(a: 663 s, b: 1060 s)

###

Test: gradient 5% acetonitrile 3 min, to 50% in 2 min, to 85% in 15 min, held 3 min, 100 µL/min
Conditions: column: Zorbax Extend-C18 2.1 x 50 mm; eluents: water / acetonitrile, 0.1% formic acid
valueType: RP-LC retention time (s)

Cc1ccc(-c2nnc(Cc3nc(-c4ccccc4C)no3)o2)cc1	1100
CNc1nc(Nc2ccccc2F)nc2ccccc12	634
COc1ccc(OC)c(CNC(=O)C2CCCN(c3nnc4ccc(Cl)cn34)C2)c1 (stereo not given)	737
CCn1ccc(C(=O)NC(C(=O)N2CCCc3ccccc32)c2ccccc2)n1 (stereo not given)	967
CCc1nc2cc(-c3noc(-c4ccc(OC)c(OC)c4)n3)ccc2o1	1080
CCC(=O)Nc1ccc(CCc2nc3ccc(C(=O)NC4CCCCC4)cc3[nH]2)cc1	647
O=C1Nc2ccc(Br)cc2/C1=C/C(=O)c1ccccc1	964
O=C(NC1CC1)C1CCN(S(=O)(=O)Cc2ccc(Cl)cc2)CC1	735
Cc1ccc(S(=O)(=O)CC(=O)Nc2nc(-c3ccc4c(c3)OCCO4)cs2)cc1	935
Cc1ccc(NC(=O)Cn2ccc3sccc3c2=O)cc1F	785

###

Assay: gradient 5% acetonitrile 3 min, to 50% in 2 min, to 85% in 15 min, held 3 min, 100 µL/min
Conditions: column: Zorbax Extend-C18 2.1 x 50 mm; eluents: water / acetonitrile, 0.1% formic acid
valueType: RP-LC retention time (s)

Cn1c(CCNC(=O)c2cccc(F)c2)nc2cccnc21	611
O=C(Nc1cccc(F)c1)N1CCCC(Cn2c(C3CC3)nc3cccnc32)C1 (stereo not given)	676
CC1(C)C(=O)N(CC(=O)N2CCc3ccccc3C2)c2ccccc21	930
CSc1nnc(-c2nn(C)c3c2CN(C(=O)c2cccc(F)c2)CC3)n1C	693
O=C1NCCCCCCN(C(=O)c2ccsc2)[C@H]2CCCC[C@@H]12	786

###

Experiment: gradient 5% acetonitrile 3 min, to 50% in 2 min, to 85% in 15 min, held 3 min, 100 µL/min
Conditions: column: Zorbax Extend-C18 2.1 x 50 mm; eluents: water / acetonitrile, 0.1% formic acid
valueType: RP-LC retention time (s)

Previously resolved entries follow.
Cc1ccccc1Cn1nc2c(S(=O)(=O)N3CCOCC3)cccn2c1=O	794
O=C(Cc1c(Sc2ccccc2)[nH]c2ccccc12)N1CCN(c2ccccn2)CC1	679
Cc1nc(-c2csc(S(=O)(=O)N3CCCC(C(=O)Nc4ccc(F)cc4Cl)C3)c2)no1 (stereo not given)	1010
CC1=C(c2ccc(C(C)C)cc2)S(=O)(=O)N=C1N1CCC(C(=O)NCc2ccco2)CC1	939
CS(=O)(=O)c1nc2ccc(NS(=O)(=O)c3cc(F)cc(F)c3)cc2s1	858

(1) CCOc1ccccc1NC(=O)N1CCCC(Cn2c(C)nc3cccnc32)C1 (stereo not given)
(2) COc1ccc(-c2ncc3c(n2)CCN(C(=O)c2ccc(Cl)cc2)C3)cc1
### Prompt Response body: label of entry with the larger RP-LC retention time; valid values 1 , 2 . Pick one; state its label.
### Response 2
(2: 969 s, 1: 618 s)

(a) CCOCCOC1CCN(S(=O)(=O)Cc2ccccc2F)CC1
(b) CC(=O)Nc1ccc(CCc2nc3ccc(C(=O)NC(C)C)cc3[nH]2)cc1
### Prompt Would you kindly point out which of a and b has the smaller RP-LC retention time figure? Pick one; state its label.
### Response b

###

Experiment: gradient 5% acetonitrile 3 min, to 50% in 2 min, to 85% in 15 min, held 3 min, 100 µL/min
Conditions: column: Zorbax Extend-C18 2.1 x 50 mm; eluents: water / acetonitrile, 0.1% formic acid
valueType: RP-LC retention time (s)

(I) Cc1ccc(NC(=O)Cn2cccc2-c2nnc(C3CCC3)o2)c(Cl)c1
(II) CC(C)NC(=O)N(C1CC1)C1CCOC2(CCN(C(=O)c3ccco3)CC2)C1 (stereo not drawn)
### Prompt Would you kindly point out which of I and II has the smaller RP-LC retention time figure? Pick one; state its label.
### Response II
(II: 707 s, I: 1050 s)

(1) COC(=O)c1cc(OCC(=O)Nc2ccc(OC)c(OC)c2)c2cc(F)ccc2n1
(2) COc1ccc(CNC(=O)CSc2cc(N3CCN(c4ccc(OC)cc4)CC3)ncn2)cc1
### Prompt Would you kindly point out which of 1 and 2 has the smaller RP-LC retention time figure? Pick one; state its label.
### Response 1

(A) COc1cc(-c2noc(CN3C(=O)C(C)Oc4ccccc43)n2)cc(OC)c1OC (stereo not drawn)
(B) CCN(Cc1ccccc1)C(=O)Cn1c(N2CCOCC2)nc(C)cc1=O
### Prompt Response body: label of entry with the larger RP-LC retention time; valid values A , B . Pick one; state its label.
### Response A
(A: 980 s, B: 673 s)

(I) COCCN1C(=O)[C@H]2CN(Cc3ccccc3OC(F)(F)F)C[C@H]2C1=O
(II) Cc1[nH]nc(-c2c(C)sc(C)c2S(=O)(=O)Nc2cccc(Cl)c2)c1C
### Prompt Would you kindly point out which of I and II has the smaller RP-LC retention time figure? Pick one; state its label.
### Response I
(I: 743 s, II: 1100 s)

FYI, the data here is from the METLIN SMRT retention time set (Domingo-Almenara et al. 2019).
